Catalogue of fold repression readings, one per entry.
target-of-assay: T1, ECF28_1088
T1 chain: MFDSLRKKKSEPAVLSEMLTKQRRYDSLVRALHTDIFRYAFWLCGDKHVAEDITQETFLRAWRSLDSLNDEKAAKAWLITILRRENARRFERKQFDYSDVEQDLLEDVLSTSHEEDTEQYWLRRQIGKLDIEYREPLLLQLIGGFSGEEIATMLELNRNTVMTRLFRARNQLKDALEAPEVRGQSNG
Respond numerically, and do not add a unit to the figure.

Known fold repression results, listed for orientation:
>  <binder>
AS33_423 (protein) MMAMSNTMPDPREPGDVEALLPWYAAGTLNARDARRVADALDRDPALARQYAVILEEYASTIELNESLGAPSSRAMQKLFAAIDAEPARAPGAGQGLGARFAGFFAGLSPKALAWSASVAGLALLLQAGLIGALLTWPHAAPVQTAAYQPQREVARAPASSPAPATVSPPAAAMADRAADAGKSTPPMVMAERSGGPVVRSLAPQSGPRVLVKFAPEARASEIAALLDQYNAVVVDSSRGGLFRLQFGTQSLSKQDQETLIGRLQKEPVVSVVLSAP

>  <fold repression>
3.17

$$$$
>  <binder>
AS03_1198 (protein) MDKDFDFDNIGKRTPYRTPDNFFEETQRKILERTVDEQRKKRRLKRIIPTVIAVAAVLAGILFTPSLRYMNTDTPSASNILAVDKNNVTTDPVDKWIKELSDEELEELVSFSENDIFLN

>  <fold repression>
1.24

$$$$
>  <binder>
AS25_1645 (protein) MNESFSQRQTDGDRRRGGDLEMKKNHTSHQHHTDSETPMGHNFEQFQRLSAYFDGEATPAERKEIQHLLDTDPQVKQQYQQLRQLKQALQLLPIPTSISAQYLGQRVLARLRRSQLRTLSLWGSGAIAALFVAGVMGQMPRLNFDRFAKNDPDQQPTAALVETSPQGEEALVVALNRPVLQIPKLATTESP

>  <fold repression>
3.89

$$$$
>  <binder>
AS11_987 (protein) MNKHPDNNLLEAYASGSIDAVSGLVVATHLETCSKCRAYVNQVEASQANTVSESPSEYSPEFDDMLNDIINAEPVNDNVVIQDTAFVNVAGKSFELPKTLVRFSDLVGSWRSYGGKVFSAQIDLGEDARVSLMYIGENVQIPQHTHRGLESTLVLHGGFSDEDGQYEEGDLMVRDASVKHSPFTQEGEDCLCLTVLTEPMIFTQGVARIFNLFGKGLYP

>  <fold repression>
1.97

$$$$
>  <binder>
AS15_524 (protein) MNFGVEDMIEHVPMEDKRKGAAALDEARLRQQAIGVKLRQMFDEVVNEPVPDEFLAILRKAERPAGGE

>  <fold repression>
3.64

$$$$

As a next step, examine the binder that follows.
Asked: Fill in the blank: the reported fold repression of AS27_4265 (protein) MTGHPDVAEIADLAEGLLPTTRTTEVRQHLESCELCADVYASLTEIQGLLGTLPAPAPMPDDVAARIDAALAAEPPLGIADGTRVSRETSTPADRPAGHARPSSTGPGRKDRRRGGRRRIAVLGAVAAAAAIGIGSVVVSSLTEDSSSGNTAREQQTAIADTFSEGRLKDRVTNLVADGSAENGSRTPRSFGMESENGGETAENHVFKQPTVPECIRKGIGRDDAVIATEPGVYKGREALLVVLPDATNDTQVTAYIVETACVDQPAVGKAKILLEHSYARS is ____.
Given back: 2.14
